Test: Cmax in monkey at 1 mg/kg, sc
Format: ADME, organism-based, Macaca mulatta
Set-up: dose 1 mg/kg, route subcutaneous
Settings: rhesus monkey, in vivo
Numbered stars: 1 amine (or outer) side, 2 acyl side, 3 side chain; on linkers, the order of the positions; unused ones are H or OH. Square brackets hold non-standard residues; d marks the D form. Peptide text beside a SMILES is read from it. * marks the point of attachment. Pro(3R,4S-CMe2) = CC1(C)[C@@H]2[C@@H](C(=O)O)NC[C@@H]21; X1 = O=C(C(=O)[*:2])C(CC1CC1)N[*:1]; Phg = N[C@H](C(=O)O)c1ccccc1; Tle = CC(C)(C)[C@H](N)C(=O)O; Boc = CC(C)(C)OC(=O)*
value kind: Cmax (nM)
Answer in nM, number only, no unit symbol.

[Q] I have this compound here, CN(C)C(=O)[C@@H](NC(=O)CNC(=O)C(=O)C(CC1CC1)NC(=O)[C@@H]1[C@@H]2[C@H](CN1C(=O)[C@@H](NC(=O)OC(C)(C)C)C(C)(C)C)C2(C)C)c1ccccc1 (stereo partly drawn) (Boc-[Tle][Pro(3R,4S-CMe2)][X1]G[Phg]-NMe2) , and I need its recorded Cmax.
[A] 1600

---

Assay: AUC in rat at 10 mg/kg, sc
Assay type: ADME, organism-based
Design: dose 10 mg/kg, route subcutaneous
Conditions: plasma
Numbered stars: 1 amine (or outer) side, 2 acyl side, 3 side chain; on linkers, the order of the positions; unused ones are H or OH. Square brackets hold non-standard residues; d marks the D form. Peptide text beside a SMILES is read from it. * marks the point of attachment. Pro(3R,4S-CMe2) = CC1(C)[C@@H]2[C@@H](C(=O)O)NC[C@@H]21; X1 = O=C(C(=O)[*:2])C(CC1CC1)N[*:1]; Phg = N[C@H](C(=O)O)c1ccccc1; Tle = CC(C)(C)[C@H](N)C(=O)O; Boc = CC(C)(C)OC(=O)*
value kind: AUC (µM·h)
The figure you give is taken to be in µM·h; do not add the unit.

[Q] Please report the recorded AUC for CN(C)C(=O)[C@@H](NC(=O)CNC(=O)C(=O)C(CC1CC1)NC(=O)[C@@H]1[C@@H]2[C@H](CN1C(=O)[C@@H](NC(=O)OC(C)(C)C)C(C)(C)C)C2(C)C)c1ccccc1 (stereo partly drawn) (Boc-[Tle][Pro(3R,4S-CMe2)][X1]G[Phg]-NMe2) .
[A] 19.5

---

# maps each entry to its Selectivity ratio
Test: Selectivity for HCV NS3 serine protease over HNE
Numbered stars: 1 amine (or outer) side, 2 acyl side, 3 side chain; on linkers, the order of the positions; unused ones are H or OH. Square brackets hold non-standard residues; d marks the D form. Peptide text beside a SMILES is read from it. * marks the point of attachment. Pro(3R,4S-CMe2) = CC1(C)[C@@H]2[C@@H](C(=O)O)NC[C@@H]21; X4 = O=C(C(=O)[*:2])C(CCC(F)(F)F)N[*:1]; Isobutyloxycarbonyl = CC(C)COC(=O)*; X1 = O=C(C(=O)[*:2])C(CC1CC1)N[*:1]; X3 = CCCCC(N[*:1])C(=O)C(=O)[*:2]; X2 = CCCC(N[*:1])C(=O)C(=O)[*:2]; Chg = N[C@H](C(=O)O)C1CCCCC1; Phg = N[C@H](C(=O)O)c1ccccc1; Tle = CC(C)(C)[C@H](N)C(=O)O; Boc = CC(C)(C)OC(=O)*
Answer field: number only, no words.

>>> reported_value("CCCCC(NC(=O)[C@@H]1[C@@H]2[C@H](CN1C(=O)[C@@H](NC(=O)OC(C)(C)C)C(C)(C)C)C2(C)C)C(=O)C(=O)NCC(=O)N[C@H](C(=O)N(C)C)c1ccccc1 (stereo partly drawn) (Boc-[Tle][Pro(3R,4S-CMe2)][X3]G[Phg]-NMe2)")
964
>>> reported_value("CCCC(NC(=O)[C@@H]1[C@@H]2[C@H](CN1C(=O)[C@@H](NC(=O)OC(C)(C)C)C(C)(C)C)C2(C)C)C(=O)C(=O)NCC(=O)N[C@H](C(=O)N(C)C)c1ccccc1 (stereo partly drawn) (Boc-[Tle][Pro(3R,4S-CMe2)][X2]G[Phg]-NMe2)")
147
>>> reported_value("CCCC(NC(=O)[C@@H]1[C@@H]2[C@H](CN1C(=O)[C@@H](NC(=O)OCC(C)C)C1CCCCC1)C2(C)C)C(=O)C(=O)NCC(=O)N[C@H](C(=O)N(C)C)c1ccccc1 (stereo partly drawn) (Isobutyloxycarbonyl-[Chg][Pro(3R,4S-CMe2)][X2]G[Phg]-NMe2)")
4
>>> reported_value("CN(C)C(=O)[C@@H](NC(=O)CNC(=O)C(=O)C(CC1CC1)NC(=O)[C@@H]1[C@@H]2[C@H](CN1C(=O)[C@@H](NC(=O)OC(C)(C)C)C(C)(C)C)C2(C)C)c1ccccc1 (stereo partly drawn) (Boc-[Tle][Pro(3R,4S-CMe2)][X1]G[Phg]-NMe2)")
1000
>>> reported_value("CCCC(NC(=O)[C@@H]1[C@@H]2[C@H](CN1C(=O)[C@@H](NC(=O)OCC(C)C)C(C)(C)C)C2(C)C)C(=O)C(=O)NCC(=O)N[C@H](C(=O)N(C)C)c1ccccc1 (stereo partly drawn) (Isobutyloxycarbonyl-[Tle][Pro(3R,4S-CMe2)][X2]G[Phg]-NMe2)")
81

# context switch: different compound, same Selectivity ratio
[Q] Request the reported Selectivity ratio associated with CN(C)C(=O)[C@@H](NC(=O)CNC(=O)C(=O)C(CCC(F)(F)F)NC(=O)[C@@H]1[C@@H]2[C@H](CN1C(=O)[C@@H](NC(=O)OC(C)(C)C)C(C)(C)C)C2(C)C)c1ccccc1 (stereo partly drawn) (Boc-[Tle][Pro(3R,4S-CMe2)][X4]G[Phg]-NMe2)
[A] 4600

---

Experiment: AUC in rat at 5 mg/kg, iv
Format: ADME, organism-based
Design: dose 5 mg/kg, route intravenous
Conditions: plasma
Numbered stars: 1 amine (or outer) side, 2 acyl side, 3 side chain; on linkers, the order of the positions; unused ones are H or OH. Square brackets hold non-standard residues; d marks the D form. Peptide text beside a SMILES is read from it. * marks the point of attachment. Pro(3R,4S-CMe2) = CC1(C)[C@@H]2[C@@H](C(=O)O)NC[C@@H]21; X1 = O=C(C(=O)[*:2])C(CC1CC1)N[*:1]; Phg = N[C@H](C(=O)O)c1ccccc1; Tle = CC(C)(C)[C@H](N)C(=O)O; Boc = CC(C)(C)OC(=O)*
value kind: AUC (µM·h)
Dear colleague, please return just the value in µM·h, with no unit written.

[Q] // query AUC value for entry CN(C)C(=O)[C@@H](NC(=O)CNC(=O)C(=O)C(CC1CC1)NC(=O)[C@@H]1[C@@H]2[C@H](CN1C(=O)[C@@H](NC(=O)OC(C)(C)C)C(C)(C)C)C2(C)C)c1ccccc1 (stereo partly drawn) (Boc-[Tle][Pro(3R,4S-CMe2)][X1]G[Phg]-NMe2)
[A] 4.7

---

Test: AUC in monkey at 1 mg/kg, iv
Assay type: ADME, organism-based, Macaca mulatta
Set-up: dose 1 mg/kg, route intravenous
Settings: rhesus monkey, plasma
Numbered stars: 1 amine (or outer) side, 2 acyl side, 3 side chain; on linkers, the order of the positions; unused ones are H or OH. Square brackets hold non-standard residues; d marks the D form. Peptide text beside a SMILES is read from it. * marks the point of attachment. Pro(3R,4S-CMe2) = CC1(C)[C@@H]2[C@@H](C(=O)O)NC[C@@H]21; X1 = O=C(C(=O)[*:2])C(CC1CC1)N[*:1]; Phg = N[C@H](C(=O)O)c1ccccc1; Tle = CC(C)(C)[C@H](N)C(=O)O; Boc = CC(C)(C)OC(=O)*
value kind: AUC (µM·h)
// units = µM·h; emit number, no label

[Q] // returns reported AUC for input CN(C)C(=O)[C@@H](NC(=O)CNC(=O)C(=O)C(CC1CC1)NC(=O)[C@@H]1[C@@H]2[C@H](CN1C(=O)[C@@H](NC(=O)OC(C)(C)C)C(C)(C)C)C2(C)C)c1ccccc1 (stereo partly drawn) (Boc-[Tle][Pro(3R,4S-CMe2)][X1]G[Phg]-NMe2)
[A] 3.4

---

Molecular target: NS3 (Hepatitis C virus, UniProt A3EZJ3)
Sequence (A3EZJ3 whole entry): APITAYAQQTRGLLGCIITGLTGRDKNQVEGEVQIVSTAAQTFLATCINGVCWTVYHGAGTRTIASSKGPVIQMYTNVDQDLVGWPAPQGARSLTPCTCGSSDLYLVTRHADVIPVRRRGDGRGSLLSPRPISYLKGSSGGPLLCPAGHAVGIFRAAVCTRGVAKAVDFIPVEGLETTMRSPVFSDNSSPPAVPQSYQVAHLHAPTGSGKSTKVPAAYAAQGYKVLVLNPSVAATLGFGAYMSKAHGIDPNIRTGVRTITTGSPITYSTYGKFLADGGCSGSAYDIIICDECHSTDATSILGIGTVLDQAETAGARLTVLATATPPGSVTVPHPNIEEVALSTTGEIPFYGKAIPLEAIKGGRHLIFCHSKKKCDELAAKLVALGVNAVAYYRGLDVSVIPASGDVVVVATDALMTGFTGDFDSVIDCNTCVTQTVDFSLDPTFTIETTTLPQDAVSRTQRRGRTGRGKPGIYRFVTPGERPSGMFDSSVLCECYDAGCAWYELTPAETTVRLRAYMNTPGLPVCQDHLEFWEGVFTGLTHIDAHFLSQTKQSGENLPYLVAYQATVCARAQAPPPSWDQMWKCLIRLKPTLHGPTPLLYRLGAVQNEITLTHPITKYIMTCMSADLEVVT
Numbered stars: 1 amine (or outer) side, 2 acyl side, 3 side chain; on linkers, the order of the positions; unused ones are H or OH. Square brackets hold non-standard residues; d marks the D form. Peptide text beside a SMILES is read from it. * marks the point of attachment. Pro(3R,4S-CMe2) = CC1(C)[C@@H]2[C@@H](C(=O)O)NC[C@@H]21; X4 = O=C(C(=O)[*:2])C(CCC(F)(F)F)N[*:1]; Pro(4,4-Me2) = CC1(C)CN[C@H](C(=O)O)C1; Isobutyloxycarbonyl = CC(C)COC(=O)*; X2 = CCCC(N[*:1])C(=O)C(=O)[*:2]; Phg = N[C@H](C(=O)O)c1ccccc1; Tle = CC(C)(C)[C@H](N)C(=O)O; Boc = CC(C)(C)OC(=O)*
value kind: pKi
# pKi is unitless: minus log10 of the molar concentration; print number only

Example cases with answers are listed next.
>>> reported_value("CCCC(NC(=O)[C@@H]1[C@@H]2[C@H](CN1C(=O)[C@@H](NC(=O)OC(C)(C)C)C(C)(C)C)C2(C)C)C(=O)C(=O)NCC(=O)N[C@H](C(=O)N(C)C)c1ccccc1 (stereo partly drawn) (Boc-[Tle][Pro(3R,4S-CMe2)][X2]G[Phg]-NMe2)")
7.85
>>> reported_value("CN(C)C(=O)[C@@H](NC(=O)CNC(=O)C(=O)C(CCC(F)(F)F)NC(=O)[C@@H]1[C@@H]2[C@H](CN1C(=O)[C@@H](NC(=O)OC(C)(C)C)C(C)(C)C)C2(C)C)c1ccccc1 (stereo partly drawn) (Boc-[Tle][Pro(3R,4S-CMe2)][X4]G[Phg]-NMe2)")
8.70
>>> reported_value("CCCC(NC(=O)[C@@H]1CC(C)(C)CN1C(=O)[C@@H](NC(=O)OCC(C)C)C(C)(C)C)C(=O)C(=O)NCC(=O)N[C@H](C(=O)N(C)C)c1ccccc1 (some centres undefined) (Isobutyloxycarbonyl-[Tle][Pro(4,4-Me2)][X2]G[Phg]-NMe2)")
7.44

[Q] // map CCCC(NC(=O)[C@@H]1[C@@H]2[C@H](CN1C(=O)[C@@H](NC(=O)OCC(C)C)C(C)(C)C)C2(C)C)C(=O)C(=O)NCC(=O)N[C@H](C(=O)N(C)C)c1ccccc1 (stereo partly drawn) (Isobutyloxycarbonyl-[Tle][Pro(3R,4S-CMe2)][X2]G[Phg]-NMe2) to recorded pKi (system: NS3 (Hepatitis C virus, UniProt A3EZJ3))
[A] 7.80
